# assayed.system: ER (Homo sapiens)
# Construct: host or cells: T47D and MCF7 human breast cancer cells
# Sequence (P03372 1-595): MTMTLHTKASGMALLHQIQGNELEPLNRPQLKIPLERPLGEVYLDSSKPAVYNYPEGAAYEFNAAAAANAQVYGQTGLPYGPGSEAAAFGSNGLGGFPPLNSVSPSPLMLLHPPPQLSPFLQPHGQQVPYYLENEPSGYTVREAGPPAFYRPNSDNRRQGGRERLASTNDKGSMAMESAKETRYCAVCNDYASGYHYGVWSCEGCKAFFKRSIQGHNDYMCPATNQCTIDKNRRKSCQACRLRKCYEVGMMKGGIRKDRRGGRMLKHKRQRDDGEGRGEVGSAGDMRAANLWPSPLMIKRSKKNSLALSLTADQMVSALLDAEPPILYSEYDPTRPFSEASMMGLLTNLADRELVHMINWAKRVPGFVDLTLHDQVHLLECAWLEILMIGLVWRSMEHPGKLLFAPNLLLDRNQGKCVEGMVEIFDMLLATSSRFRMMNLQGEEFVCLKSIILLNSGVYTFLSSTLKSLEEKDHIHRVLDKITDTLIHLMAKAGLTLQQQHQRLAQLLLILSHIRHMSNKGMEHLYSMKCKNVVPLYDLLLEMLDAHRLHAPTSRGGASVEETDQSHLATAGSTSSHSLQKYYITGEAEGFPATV
# experiment.notes: ER degradation activity, in-cell western blot analysis in T47D cells
# Type: cell-based
# test.settings: 16 hours, Table A does not say which cell line (T47D or MCF7), read-out: Potency (DC50)
DC50 values, listed per item
measured.endpoint: DC50

INSERT INTO measurements (compound, endpoint_result) VALUES
  ('C[C@@H]1Cc2c([nH]c3ccccc23)[C@@H](c2c(F)cc(N3CCC4(CCN(C(=O)CN5Cc6cc7c(cc6C5)C(=O)N(C5CCC(=O)NC5=O)C7=O)CC4)C3)cc2F)N1CC(F)F (some centres unmarked)', '< 10 nM'),
  ('O=C1CCC(N2C(=O)c3cc4c(cc3C2=O)CN(C(=O)C2CCN(CC3CCN(c5ccc([C@@H]6c7ccc(O)cc7CC[C@@H]6c6ccccc6)cc5)CC3)CC2)C4)C(=O)N1 (some centres unmarked)', '> 100 nM'),
  ('O=C1CCC(N2C(=O)c3cc4c(cc3C2=O)CN(C2CCC(C(=O)N3CCN(c5ccc([C@@H]6c7ccc(O)cc7CC[C@@H]6c6ccccc6)cc5)CC3)CC2)C4)C(=O)N1 (some centres unmarked)', '> 100 nM'),
  ('CN(C1CCN(c2ccc([C@@H]3c4ccc(O)cc4CC[C@@H]3c3ccccc3)cc2)CC1)C1CC(C(=O)N2Cc3cc4c(cc3C2)C(=O)N(C2CCC(=O)NC2=O)C4=O)C1 (some centres unmarked)', '> 100 nM'),
  ('C[C@@H]1Cc2c([nH]c3ccccc23)[C@@H](c2c(F)cc(N3CCC(C(=O)N4CCC(N5Cc6cc7c(cc6C5)C(=O)N(C5CCC(=O)NC5=O)C7=O)CC4)CC3)cc2F)N1CC(F)(F)F (some centres unmarked)', '10 to 100 nM'),
  ('C[C@@H]1Cc2c([nH]c3ccccc23)[C@@H](c2c(F)cc(N3CC4(CCN(CC(=O)N5Cc6cc7c(cc6C5)C(=O)N(C5CCC(=O)NC5=O)C7=O)CC4)C3)cc2F)N1CC(F)F (some centres unmarked)', '10 to 100 nM'),
  ('C[C@@H]1Cc2c([nH]c3ccccc23)[C@@H](c2c(F)cc(C3CCC(C(=O)N4CCC(F)(CN5Cc6cc7c(cc6C5)C(=O)N(C5CCC(=O)NC5=O)C7=O)CC4)CC3)cc2F)N1CC(F)F (some centres unmarked)', '10 to 100 nM'),
  ('C[C@@H]1Cc2c([nH]c3ccccc23)[C@@H](c2c(F)cc(N3CCC(N4CCC(CN5Cc6cc7c(cc6C5)C(=O)N(C5CCC(=O)NC5=O)C7=O)CC4)C3)cc2F)N1CC(F)F (some centres unmarked)', '> 100 nM'),
  ('O=C1CCC(N2C(=O)c3cc4c(cc3C2=O)CN(C2CCN(C(=O)C3CCN(c5ccc([C@@H]6c7ccc(O)cc7CC[C@@H]6c6ccccc6)cc5)CC3)CC2)C4)C(=O)N1 (some centres unmarked) [E 240]', '> 100 nM'),
  ('O=C1CCC(N2C(=O)c3cc4c(cc3C2=O)CN([C@H]2CC[C@H](C(=O)N3CC(Nc5ccc([C@H]6c7ccc(O)cc7CC[C@H]6c6ccccc6)cc5)C3)CC2)C4)C(=O)N1 (some centres unmarked)', '< 10 nM'),
  ('O=C1CCC(N2C(=O)c3cc4c(cc3C2=O)CN(C(=O)CN2CC3(CCN(c5ccc([C@@H]6c7ccc(O)cc7CC[C@@H]6c6ccc(F)cc6)cc5)CC3)C2)C4)C(=O)N1 (mixture of isomers)', '10 to 100 nM'),
  ('O=C1CCC(N2C(=O)c3cc4c(cc3C2=O)CN(C2CCC(C(=O)NC3CN(c5ccc([C@@H]6c7ccc(O)cc7CC[C@@H]6c6ccccc6)cc5)C3)CC2)C4)C(=O)N1 (some centres unmarked)', '> 100 nM'),
  ('O=C1CCC(N2C(=O)c3cc4c(cc3C2=O)CN(CC(=O)N2CCC3(CC2)CCN(c2cc(F)c([C@@H]5c6ccc(O)cc6CC[C@@H]5c5ccccc5)c(F)c2)CC3)C4)C(=O)N1 (mixture of isomers)', '> 100 nM'),
  ('O=C1CCC(N2C(=O)c3cc4c(cc3C2=O)CN(CC(=O)N2CC3(C2)CN(c2ccc([C@@H]5c6ccc(O)cc6CC[C@@H]5c5ccccc5)cc2)C3)C4)C(=O)N1 (mixture of isomers)', '10 to 100 nM'),
  ('C[C@@H]1Cc2c([nH]c3ccccc23)[C@@H](c2c(F)cc(-c3cnc(C(=O)N4CCC(N5Cc6cc7c(cc6C5)C(=O)N(C5CCC(=O)NC5=O)C7=O)CC4)cn3)cc2F)N1CC(F)F (some centres unmarked)', '> 100 nM'),
  ('C[C@@H]1Cc2c([nH]c3ccccc23)[C@H](c2c(F)cc(C(=O)N3CCC4(CCC(CN5Cc6cc7c(cc6C5)C(=O)N(C5CCC(=O)NC5=O)C7=O)CC4)CC3)cc2F)N1CC(F)F (some centres unmarked)', '> 100 nM'),
  ('O=C1CCC(N2C(=O)c3cc4c(cc3C2=O)CN(CC(=O)N2CCC3(CC2)CCN(c2ccc([C@@H]5c6ccc(O)cc6CC[C@@H]5c5ccccc5)nc2)CC3)C4)C(=O)N1 (mixture of isomers)', '> 100 nM'),
  ('O=C1CCC(N2C(=O)c3cc4c(cc3C2=O)CN(CC(=O)N2CCC(n3cc(-c5ccc([C@@H]6c7ccc(O)cc7CC[C@@H]6c6ccccc6)cc5)cn3)CC2)C4)C(=O)N1 (some centres unmarked)', '> 100 nM'),
  ('O=C1CCC(N2C(=O)c3cc4c(cc3C2=O)CN(CC(=O)N2CCC3(CC2)CCN(c2ccc([C@H]5c6ccc(O)cc6CC[C@H]5c5ccc(F)cc5)cc2)CC3)C4)C(=O)N1 (some centres unmarked)', '10 to 100 nM'),
  ('C[C@@H]1Cc2c([nH]c3ccccc23)[C@@H](c2c(F)cc(N3CC(C(=O)N4CCC(CN5Cc6cc7c(cc6C5)C(=O)N(C5CCC(=O)NC5=O)C7=O)CC4)C3)cc2F)N1CC(F)F (some centres unmarked) [E 237]', '> 100 nM');
